Every entry's value here was drawn from patent US9630894B2.

assay: CCC extraction with DME of clarified fermentation broth from Clostridium acetobutylicum, GC and DNS assay; assay type: physicochemical; settings: Run 3, Extract Top, time 31 min
Readout name: concentration in sample (µg/mL)

Input: # return recorded concentration in sample for input CC(=O)O [acetate]
Output: 400

Input: Report concentration in sample, nothing else, for this compound: `CC(C)CO`
Output: 316670

Input: Specify concentration in sample for `CC(C)=O` and stop.
Output: 7030

I = CCCC(=O)O [butyrate]
II = CC(=O)C(C)O (stereo not drawn)
III = CCO
Input: Ascending by concentration in sample, please: list the compounds accordingly. Enter labels, ranked according to the request.
Output: II, III, I

====

assay: CCC extraction with DME of clarified fermentation broth from Clostridium acetobutylicum, GC and DNS assay; format: physicochemical; conditions: Run 3, Feed, time 0 min
Readout name: concentration in sample (µg/mL)

// known answers, use as guide
Input: Return concentration in sample for the following molecule: CCO [Ethanol, ethanol]
Output: 800

Input: Annotate the molecule CCCC(=O)O [butyrate] with its measured concentration in sample.
Output: 1710

Input: Specify measured concentration in sample for CC(C)CO [isobutanol, 2-methyl-1-propanol] .
Output: 11650

1 = CC(=O)O [acetate]
2 = CC(=O)C(C)O (stereo not drawn) [Acetoin]
Input: Could you kindly indicate whether 1 or 2 has the higher concentration in sample value? Give the label of your selection.
Output: 1
(1: 5470 µg/mL, 2: 330 µg/mL)

====

Test: CCC extraction with DME of clarified fermentation broth from Clostridium acetobutylicum, GC and DNS assay
Assay type: physicochemical
Conditions: Run 3, Extract, time 70 min
Procedure: This example describes three different runs of the CCC with fermentation broth from Clostridium acetobutylicum. […] The fermentation was intentionally interrupted prior to completion. The extraction column operated at room temperature (˜25° C.) throughout the column. Periodic extract and raffinate samples were taken and analyzed for the constituents in the extract and raffinate discharges. This example describes three different runs. […] All components were quantified in the extract and raffinate. […]
Readout name: concentration in sample (µg/mL)

1 = CC(=O)C(C)O (stereo not drawn)
2 = CC(C)CO
Input: For 1 and 2 , which recorded concentration in sample is lower? // respond with label for picked entry
Output: 1

1 = CCO
2 = CC(=O)O [acetate]
Input: Between the entries labeled 1 and 2 , whose measured concentration in sample is lower? # respond with the chosen item's label
Output: 2

====

assay: CCC extraction with DME of clarified fermentation broth from Clostridium acetobutylicum, GC and DNS assay; type: physicochemical; details: Run 3, Extract Bot, time 37 min
Readout name: concentration in sample (µg/mL)

A = CC(=O)O [acetate]
B = CCO
C = CCCC(=O)O [butyrate]
D = CC(C)CO
Input: Put the items above in order of decreasing concentration in sample. Quick reminder: the answer is the labels in the order asked.
Output: D, B, C, A
(D: 39690 µg/mL, B: 2590 µg/mL, C: 1240 µg/mL, A: 0 µg/mL)

====

assay: CCC extraction with DME of clarified fermentation broth from Clostridium acetobutylicum, GC and DNS assay; assay type: physicochemical; details: Run 3, Extract, time 27 min
Readout name: concentration in sample (µg/mL)

Input: Hello, please tell me recorded concentration in sample for this one: CC(=O)O [acetate]
Output: 0

A = CC(=O)C(C)O (stereo not drawn)
B = CCCC(=O)O [butyrate]
Input: Hello, I am sorting some records. Could you say if A or B has the smaller concentration in sample value? Answer by quoting the chosen item's label.
Output: A

====

assay: CCC extraction with DME of clarified fermentation broth from Clostridium acetobutylicum, GC and DNS assay; assay type: physicochemical; settings: Run 3, Raffinate, time 74 min
Readout name: concentration in sample (µg/mL)

Reference set (3 entries):
Input: Please report the measured concentration in sample for `CCO`
Output: 710

Input: Give recorded concentration in sample. `CC(C)CO`
Output: 480

Input: # return recorded concentration in sample for entry `CC(C)=O`
Output: 600

I = CC(=O)O [acetate]
II = CC(=O)C(C)O (stereo not drawn)
III = CCCC(=O)O [butyrate]
Input: Please give the order of these compounds when sorted by concentration in sample, largest value leading. API: response body holds the labels in the requested order.
Output: I, III, II
(I: 7770 µg/mL, III: 970 µg/mL, II: 0 µg/mL)

====

test: CCC extraction with DME of clarified fermentation broth from Clostridium acetobutylicum, GC and DNS assay; assay type: physicochemical; settings: Run 3, Extract Bot, time 31 min
Readout name: concentration in sample (µg/mL)

A = CCO
B = CC(=O)O [acetate]
Input: Please indicate which entry, A or B , has the lower recorded concentration in sample value. // return label of chosen record
Output: B

====

test: CCC extraction with DME of clarified fermentation broth from Clostridium acetobutylicum, GC and DNS assay; type: physicochemical; conditions: Run 3, Raffinate, time 22 min
Readout name: concentration in sample (µg/mL)

Below, 4 molecules whose answers are already recorded.
Input: In one line, give reported concentration in sample of the entry CCCC(=O)O [butyrate] .
Output: 50780

Input: Consider the molecule `CCO` . State its measured concentration in sample.
Output: 340

Input: Consider the molecule `CC(C)CO` . State its measured concentration in sample.
Output: 2720

Input: Write down concentration in sample measured for item `CC(C)=O`
Output: 1200

1 = CC(=O)O [acetate]
2 = CC(=O)C(C)O (stereo not drawn)
Input: Given the listed records, identify the one among 1 and 2 with higher concentration in sample. Output the label that corresponds to your choice.
Output: 1
(1: 6780 µg/mL, 2: 70 µg/mL)

====

assay: CCC extraction with DME of clarified fermentation broth from Clostridium acetobutylicum, GC and DNS assay; type: physicochemical; conditions: Run 3, Raffinate, time 43 min
Readout name: concentration in sample (µg/mL)

Examples from the recorded data:
Input: Quickly give me recorded concentration in sample for CCO [Ethanol, ethanol]
Output: 890

Input: Determine its reported concentration in sample: CC(C)CO [isobutanol, 2-methyl-1-propanol]
Output: 230

I = CC(=O)C(C)O (stereo not drawn) [Acetoin]
II = CC(=O)O [acetate]
Input: Which value of concentration in sample is greater, the one for I or the one for II ? Could you answer with the label of the item you picked?
Output: II

====

assay: CCC extraction with DME of clarified fermentation broth from Clostridium acetobutylicum, GC and DNS assay; type: physicochemical; settings: Run 3, Extract, time 43 min
Readout name: concentration in sample (µg/mL)

Here's what some known entries look like.
Input: Return the recorded concentration in sample value; entry: CCCC(=O)O [butyrate]
Output: 2210

Input: Let me know recorded concentration in sample for `CCO` , thanks.
Output: 2110

Input: Quick one: give measured concentration in sample for `CC(C)=O`
Output: 5140

I = CC(=O)C(C)O (stereo not drawn)
II = CC(C)CO
III = CC(=O)O [acetate]
Input: Sort low-to-high on concentration in sample, please. Answer by listing the labels in the order asked for.
Output: III, I, II

====

assay: CCC extraction with DME of clarified fermentation broth from Clostridium acetobutylicum, GC and DNS assay; type: physicochemical; details: Run 3, Raffinate, time 27 min
Readout name: concentration in sample (µg/mL)

Some molecules with known concentration in sample results, for comparison:
Input: # return recorded concentration in sample for input CCO [Ethanol, ethanol]
Output: 400

Input: Dear colleague, please send me the reported concentration in sample for CC(=O)C(C)O (stereo not drawn) [Acetoin] when you can.
Output: 0

Input: Give the reported concentration in sample for this molecule. CC(=O)O [acetate]
Output: 5370

Input: Fill in reported concentration in sample for this entry: CC(C)=O [Acetone, acetone]
Output: 400

a = CC(C)CO [isobutanol, 2-methyl-1-propanol]
b = CCCC(=O)O [butyrate]
Input: Pick one: a or b . Which has the bigger concentration in sample number? Please respond with the label that marks your chosen entry.
Output: b

====

experiment: CCC extraction with DME of clarified fermentation broth from Clostridium acetobutylicum, GC and DNS assay; type: physicochemical; settings: Run 3, Raffinate, time 82 min
Readout name: concentration in sample (g/L)

Input: Output concentration in sample of `CC(C)=O`
Output: 0.46

Input: Let me know recorded concentration in sample for CC(=O)C(C)O (stereo not drawn) , thanks.
Output: 0.00

Input: Look up and state reported concentration in sample for CC(=O)O [acetate]
Output: 7.29

P = CCO
Q = CC(C)CO
Input: Choose between P and Q : whose measured concentration in sample value is numerically larger? Mark your answer with the label of the selected entry.
Output: P

====

experiment: CCC extraction with DME of clarified fermentation broth from Clostridium acetobutylicum, GC and DNS assay; assay type: physicochemical; conditions: Run 3, Extract, time 82 min
Readout name: concentration in sample (µg/mL)

Input: # return recorded concentration in sample for entry CCCC(=O)O [butyrate]
Output: 1880

Input: Supply reported concentration in sample belonging to this compound: `CC(C)CO`
Output: 37480

Input: Recall and state the measured concentration in sample for `CC(C)=O` .
Output: 4630

Input: Using known records, supply concentration in sample for CC(=O)C(C)O (stereo not drawn)
Output: 1650

A = CCO
B = CC(=O)O [acetate]
Input: Which numeric concentration in sample is bigger, that of A or that of B ? Use the label to indicate which entry you chose.
Output: A
(A: 1920 µg/mL, B: 400 µg/mL)
